experiment_description: folding stability dG unfold (combined trypsin and chymotrypsin); higher = more stable
Is folding stability dG unfold at least 0.4 kcal/mol? Then True. If not, False.

The examples below pair each entry with its known result.
monomer_sequence="SAGGSAGGSAGGIWIPGDDIKEALKKMPPDVTKHIFNPDEGRWIMIKVNDNKIDIEPWPSAGGSAGGSAGGS [r10_137_TrROS]" label_value=False
monomer_sequence="SAGGSAGGSAGGPEYIQINIKIYDPDNPKEREIPISMPVEEIEKIAKEFMPPGYRVEIISAGGSAGGSAGGS [r10_397_TrROS]" label_value=False
monomer_sequence="SAGGSAGGSMSPSESVTLTVVVEEITPGTPKVLLPEEVKEKYPNFEVQVKVEGKPATVTITRPSAGGSAGGS [r12_900_JUSTAS]" label_value=False
monomer_sequence="SAGGITIRGMPWEWAEEIAKTLAQEGYRLKDVEVEEDPPDGYYSVTVQQRDPETGKPKKPVTISIPPSAGGS [r16_750_TrROS]" label_value=True
monomer_sequence="SAGGSAKKKKKKKKKKKKKKEKKEVVIVIKAKSKEEAEKAVKKLLEELQKKYNIPLPKNVKVIILPSAGGSA [r15_496_TrROS_Hall]" label_value=True
monomer_sequence="SAGGLLPLLKEIAEALGLPEIESLSFDPETGELTLRFRGPEPYLLRIPFRPVKDGGIPLDIEVYPTDLSAGG [r13_410_TrMRF]" label_value=True

Moving on to another sequence below.
Q. Say whether SAGGSAGGSAGQPKPLPGGGEVKVEVYPPNNGKKKKFEIPPNEPDWIKELAKPGYSVHIESAGGSAGGSAGG [r11_1006_TrROS] shows folding stability dG unfold of 0.4 kcal/mol or more.
A. False

----------
experiment_description: folding stability dG unfold (combined trypsin and chymotrypsin); higher = more stable
Hi, to clarify the labels: t covers folding stability dG unfold from 2 kcal/mol upward, f covers anything below 2 kcal/mol.

monomer_sequence="SAGGSAGGVPEVVEEVAREVDPRIVTRVEVRVFEPPPEYRLVVVVVELRLPTERRFVPRVVRLRSAGGSAGG [r6_630_TrMRF]" label_value=t
monomer_sequence="SAGGSAGGSAGMSTTPVAYKFTFTLPGGETLEREGTDVAALKEALKAEYGAVEITVTPVSSAGGSAGGSAGG [r17_508_JUSTAS]" label_value=t

With those in mind, consider the next sequence.
Q. Record SAGGSAGGSAMTVTITHDVPPDVSVTVTVTSNNKKIPVSTPSRAASATIPSSEVSSLEIVPSSAGGSAGGSA [r18_170_JUSTAS] ; criterion: folding stability dG unfold no lower than 2 kcal/mol. Met?
A. f

----------
experiment_description: folding stability dG unfold (combined trypsin and chymotrypsin); higher = more stable
property_label: folding stability dG unfold (kcal/mol)
Give the value, in units of kcal/mol, as a plain number.

monomer_sequence="SAGGSAGGSAGGKLVKVTFRTPGGGTLTVEVPPTESLTLPYGDKPILVDVKEDEVVFRDESAGGSAGGSAGG [r7_510_TrMRF]" property_label="folding stability dG unfold" value_unit=kcal/mol measured_result=-0.891

Q. Fill in: folding stability dG unfold of SAGGSAGGSAMIVTEEGNTITITTLTNLTFPTTGATSTATTTTTITLPPTPLFPVPRTDNSLSAGGSAGGSA [r18_501_JUSTAS] is ___
A. 0.44

Q. // lookup folding stability dG unfold for SAGGSAGGSKELLKNLPPGAKITVEKKEDGTVRITITNKDGSEKEIEIKVNGKIIKLTIKKKPSAGGSAGGS [r20_50_TrROS_Hall]
A. 1.04

Q. Requested field: folding stability dG unfold. Item: SAGGRGVGRPGSRLLLVAEADLEPDEVSVEELAERIREAFPDVRVVDLRVEVGGEKARLFALVELDVSAGGS [r8_202_TrMRF]
A. 1.41

Q. Would you mind telling me what folding stability dG unfold value was observed for SAGGSAGGSAGGSIVIEVDTLEEAKKLAEKLNLKVTEVKEVDGKLYVKIEIKSPEELKKSAGGSAGGSAGGS [r10_218_TrROS_Hall] ?
A. 1.53

Q. # input sequence: SAGGSAGGMLVPLDDTRVVPLPDGSYAVLVRPADGSELLREFDSLEDAVEWAEATGAGVADLPASAGGSAGG [r6_84_TrMRF] ; wanted: its folding stability dG unfold
A. -0.553

----------
experiment_description: folding stability dG unfold from chymotrypsin proteolysis; higher = more stable
Each entry belongs to exactly one class, chosen by where its folding stability dG unfold falls: bucket A (below 0.7 kcal/mol), bucket B (0.7 kcal/mol to below 2 kcal/mol), bucket C (2 kcal/mol or more)

Use the examples below as a reference point.
monomer_sequence="SAGGGPAAEVARLLREAGYDVEVEVEVFSREENPPLLPGEPLVVRVRVYATPPTGPRRPLGEFVVPVGSAGG [r13_874_TrMRF]" label_value="bucket C"
monomer_sequence="SAGAPSTREFEILELVPLPPGTTAEELRATLEREVELPDDSVARIRVRAVFLSPGPAFALVLYRVEVRESAG [r5_939_TrMRF]" label_value="bucket C"
monomer_sequence="SAGGSAGGSAGMPPPVVVEPKRTSVVPESGLVIIPVTVFNPANGKATLTTYLYDPATGKLVLSAGGSAGGSA [r18_228_JUSTAS]" label_value="bucket C"
monomer_sequence="SAGGSAMKKTITVTLSYPETGETRTVTVELTDIPESDPEKWKALAEEVAEALAKERGAEVLGIEISSAGGSA [r15_1013_JUSTAS]" label_value="bucket C"
monomer_sequence="SAGGSAGGSAMTVSIPPEVITSVEYDPSTNKVTITPSDGSVKTYDVESPEEVFKANNIGPESAGGSAGGSAG [r3_34_JUSTAS]" label_value="bucket A"
monomer_sequence="SAGPAVAVAPIPALEARPDLKDALVRVVVSPLPDGRVAVDVRPVFVPKPVITPEEARELEELAEKLAASAGG [r19_313_TrMRF]" label_value="bucket A"
monomer_sequence="SKKKIEIEVIDLKTGKTETIEADTLEEALEEIKKNAPPGSTVIVRIKLPDGSVLEITLEIKPEKVTEKEKSA [r9_482_TrROS_Hall]" label_value="bucket B"
monomer_sequence="SDWHYIQIPFEITFKAPPEQARQFVEDLAENLGITDINVDNIEYDPNNGEVKVKVSISIMIPPPPPPEDDSA [r9_918_TrROS]" label_value="bucket C"

Q. Into which category would you place SAGGSAGGSAGMVITLPNGEKVEITFDKENKKITITFPDGKKVEIEIEGMSLEEILKALKSAGGSAGGSAGG [r11_729_TrROS_Hall] ?
A. bucket C

Q. Each sequence maps to one class by folding stability dG unfold. Which class for SAGGSAGGSAGGSMTVTETRYVGTDPATGVATTLSTYRDASGTPGLVTTYPGGAVTVALSAGGSAGGSAGGS [r4_35_JUSTAS] ?
A. bucket A

Q. Which category fits this record: SAGGIKIQDPDDGEWIEFPLPIRNPGDGKPYPFKVEIPVRRDPENGRPYFYIEIEFPGNGRKMTFPLRSAGG [r13_262_TrROS]
A. bucket B

Q. Tag the class for SAGGSAGGSAGGMSFPVSSVEYRKDPNSDTPLVFITLPDGTVIIERLDTGTSSVVPVSQLSAGGSAGGSAGG [r11_922_JUSTAS]
A. bucket B

Q. Please indicate the class for SAGGSAAKITEVEVEELEDGEVLIRVKVKPEDIDALLELAKKLPEENIELVEKREDGYYVLRIKRPSAGGSA [r15_386_TrROS_Hall] based on its folding stability dG unfold.
A. bucket B

Q. // return the class label for SAGAIERILEWLKDQPPGDEVPIPIRLPNGWYIKINIEYNPEENKPKIEVEYYDPDDGKPRQEQKFTIPSAG [r5_35_TrROS]
A. bucket B

Q. Looking at SAGGSAGGSAGWGLIITIEVEGEYDPANGQWSLNIEIEIQPIRIPPPKEPPPDDNPNNDDSAGGSAGGSAGG [r17_454_TrROS] , which class would you pick?
A. bucket C

----------
experiment_description: folding stability dG unfold from chymotrypsin proteolysis; higher = more stable
Measured folding stability dG unfold by item
Answer with a number only, understood to be in kcal/mol.

monomer_sequence="SAGGSAMSLSDIKDVDVYRNPNGWYTAKLKIKDPNNGKDKEVNIHVPPGQTPEKAKNIAREILKELSAGGSA [r15_181_TrROS]" value_unit=kcal/mol measured_result=1.43

Q. For the sequence SMEEIAKEIAEKAGVNWENVEFKVEEKEDPETGEKYLIAHVVIKLPNEKYIAVIDLRDKKILEIWKLEDISA [r9_1219_TrMRF] , what folding stability dG unfold is on record?
A. 3.73

Q. Entry SAGFSIVEVEPDEDTYTITIEYTLPNGTVKTKDLPLKAKNPVLLEISENEITIYLPDTNEVVTLPVSLISAG [r14_947_JUSTAS] has what folding stability dG unfold?
A. 1.74

Q. So what does the record say about folding stability dG unfold for SAGGSAGGSMPVITVDPSIKEFKDEKGNKYLLTPVTVTLPNGVPVTVVYTTDPSTGKTTPATSGSAGGSAGG [r6_298_JUSTAS] ?
A. 0.481

Q. Given SAGGSAGGKVKFEIPNAKITSVEYDPNPGLLKVEFELPNGLKLTAIFKIDKDKAILAKIEISPESAGGSAGG [r6_718_TrMRF] , state its recorded folding stability dG unfold.
A. 3.51

Q. I'd like to know its folding stability dG unfold. The sequence in question is SAVITYPIPDDKPTLILEPLPGSESLLILSTKREKIPNGTYKVEALVVRYEPALGASVEEKVELIEPIGSAG [r14_591_JUSTAS]
A. -0.216
